Test system: EKVX
Assay: NCI tumour cell line growth inhibition, 48 h
The source made the active and inactive calls. No stated cut-off is given here; in the data, active = GI50 up to about 1.1 µM and inactive = higher. Where a SMILES comes first, the peptide text is derived from it. The star is where a group is joined. Cbz = O=C(OCc1ccccc1)*
Outcome codes: active, inactive

molecule	test-system	label-value
COc1ccc(C2C=C(c3ccc4c(c3)OCO4)Oc3c2c(=O)oc2ccccc32)cc1OC (centres undefined)	EKVX	inactive
COc1cc2c(c(OC(C)=O)c1OC(C)=O)-c1ccc(SC)c(=O)cc1C(NC(C)=O)CC2 (centres undefined)	EKVX	inactive
Clc1ccc(C[P+]2(c3ccccc3)CCCCC2)cc1.[O-][Cl+3]([O-])([O-])[O-]	EKVX	inactive
CC(=O)n1[nH]c(=O)n(-c2ccccc2)c1=O	EKVX	inactive
O=c1[nH]c(=O)c2c3n(cc2[nH]1)CCCCC3	EKVX	inactive
NC(=S)N/N=C1/CN(c2ccc(Cl)c(Cl)c2)CC(=O)C1c1nc2ccccc2s1 (centres undefined)	EKVX	inactive
CCOC(=O)CCC(NC(=O)C(Cc1ccccc1)NC(=O)OCc1ccccc1)C(=O)OCC (stereo not drawn) (Cbz-Phe-Glu(OEt)-OEt; configuration not given here)	EKVX	inactive
COc1ccc(N2C(=O)c3c(c4[nH]c5ccc(OC)cc5c4c4ccc(C(C)(C)C)cc34)C2=O)cc1	EKVX	inactive
COc1cc(S(=O)(=O)Nc2ccc(-c3csc(N4C(=O)CSC4c4ccccc4O)n3)cc2)ccc1Cl (centres undefined)	EKVX	inactive
Cn1c(COC(=O)NC2CCCCC2)c(COC(=O)NC2CCCCC2)c2ccc3cc(C=O)ccc3c21	EKVX	inactive
COc1ccc2nc3ccccc3c(NCCCCN(CCCl)CCCl)c2c1	EKVX	active
O=C1Cc2c(-c3ccccc3)cc(-c3ccccc3)nc2-c2ccccc2N1	EKVX	inactive
ClC(Cl)=C1C(=C(Cl)Cl)C(Cl)(Cl)C1(Cl)Cl	EKVX	inactive
CC(=O)O[C@H]1CC[C@]2(C=O)[C@H]3CC[C@]4(C)[C@@H](C5=CC(=O)OC5)CC[C@]4(O)[C@@H]3CC[C@]2(O)C1 [STROPHANTHIDIN ACETATE]	EKVX	active
CCCS(=O)(=O)Nc1ccc(Nc2c3ccccc3nc3ccccc23)c(OC)c1	EKVX	inactive
CN(CC(=O)O)c1ncc2c(n1)-c1ccccc1OC2	EKVX	inactive
Cc1nc(O)c2c3c(sc2n1)CCCC3	EKVX	inactive
C=C1CC[C@]2(C)[C@H](CC[C@@]34C[C@@H](CC[C@H]32)[C@@H](C(=O)O)C4)C1(C)C	EKVX	inactive
CC(=O)c1cccc(NC(=O)C(=O)C(C(=O)NN)c2ccccc2)c1 (centres undefined)	EKVX	inactive
Cc1c(CNc2ccc(Cl)c(Cl)c2Cl)cnc2nc(N)nc(N)c12	EKVX	inactive
CCC12C[N+]3([O-])CCc4c([nH]c5ccccc45)C(C(=O)OC)(c4cc5c(cc4OC)N(C)C4C(O)(C(=O)OC)C(OC(C)=O)C6(CC)C=CCN7CCC54C76)CC(C3)C1O2 (centres undefined)	EKVX	active
O=c1cc(-c2ccccc2)[nH]c2ccc(N3CCCCC3)cc12	EKVX	inactive
Cc1cc(C)cc(-n2c3nc(=O)n(C)c(=O)c-3nc3ccccc32)c1	EKVX	inactive
CC(C)(Br)C(Br)CCC1(C(Br)CBr)CO1 (centres undefined)	EKVX	inactive
COC(=O)c1c(C(=O)OC)c(C(c2ccccc2)c2ccccc2)n(-c2ccccc2)c1Cl	EKVX	inactive
CS(=O)(=O)OCCN(CCOS(C)(=O)=O)c1ccc(/C=N/c2ccc3oc(=O)ccc3c2)cc1	EKVX	inactive
CCn1cc(C(=O)O)c(=O)c2cc(F)c(N3CCNCC3)nc21 [ENOXACIN]	EKVX	inactive
Cc1csc(NNC(=O)Nc2ccccc2)n1	EKVX	inactive
COC1=CC(=O)C2=C(C[C@@]3(C)C(=C2)C(CO)=CC[C@H]3O)C1=O	EKVX	inactive
O=C1C2=C(c3ccccc31)C(c1ccccc1)N1C(=O)CSC1=N2 (centres undefined)	EKVX	inactive
COc1ccc(C2=NN(C(=N)S)C(c3ccccc3)C2)cc1 (centres undefined)	EKVX	inactive
CCCC(=O)/C=C/S/C=C/C(=O)CCC	EKVX	inactive
C=CCOC(=O)N1c2ccc(O)cc2[C@@]23O[C@@]24[C@@H]1C#C/C=C\C#C[C@]3(O)C(=O)C[C@@H]4C	EKVX	inactive
CCOc1cc(/C=C2\N=C(c3ccccc3)N(c3nc4ccccc4s3)C2=O)ccc1O	EKVX	inactive
COC(=O)C1C=CN(N(C)C)C2=C1C(=O)c1c(O)cccc1C2=O (centres undefined)	EKVX	inactive
O=C(c1ccccc1)C(c1ccccc1)C1(O)C(=O)Nc2ccc(Br)cc21 (centres undefined)	EKVX	inactive
O=CNc1ccccc1OCCOc1ccccc1NC=O	EKVX	inactive
Oc1ccc(O)c(-n2cccn2)c1-n1cccn1	EKVX	inactive
CC(C)(C)C(=O)Nc1cccc2oc(-c3ccccc3)cc12	EKVX	inactive
